Tested on: TK-10 renal
Assay: NCI-60 one-dose screen, 48 h (100 = growth as untreated, 0 = no growth, -100 = all killed)
Settings: 10 µM unless noted
Compounds without any hit were thinned out: in the full panel of roughly 83,000, 20% have a hit.

- MOLECULE: "CC(C)=CC1C(C(=O)OCc2cccc(Oc3ccccc3)c2)C1(C)C (stereo not drawn)"
  UNIT: "%"
  growth: 96.6
- MOLECULE: "ClCCN(CCCl)c1ccc(-n2cnc3c(Cl)ncnc32)cc1"
  UNIT: "%"
  growth: 84.7
- MOLECULE: "C[C@]12CC[C@H]3[C@@H](C[C@@H]4SC(Nc5ccccc5)=N[C@@]45CC(O)CC[C@]35C)[C@@H]1CCC2O (stereo partly drawn)"
  UNIT: "%"
  growth: 65
- MOLECULE: "O=[N+]([O-])c1ccc([Se]C2CCCCC2Cl)c([N+](=O)[O-])c1 (stereo not drawn)"
  UNIT: "%"
  growth: 102
- MOLECULE: "CCc1ccccc1[C@@H]1C[C@]2(C)CCO[C@@H]2OO1"
  UNIT: "%"
  growth: 96.9
- MOLECULE: "CC(=O)O[C@H]1C(=O)[C@@]2(C)[C@H]([C@H](OC(=O)c3ccccc3)[C@]3(O)C[C@H](OC(=O)[C@H](OC(=O)OCC4COC(C)(C)O4)[C@@H](NC(=O)c4ccccc4)c4ccccc4)C(C)=C1C3(C)C)[C@]1(OC(C)=O)CO[C@@H]1C[C@@H]2O (stereo partly drawn)"
  UNIT: "%"
  growth: 79.6
- MOLECULE: "CC(C)CCC1(CCCl)C(=O)NC(=O)NC1=O"
  UNIT: "%"
  growth: 100
- MOLECULE: "ClCCN(CCCl)Cc1ccc(Nc2ccnc3cc(Cl)ccc23)cc1"
  UNIT: "%"
  growth: 59.5

====

Tested on: HT29 colon
Assay: NCI-60 one-dose screen, 48 h (100 = growth as untreated, 0 = no growth, -100 = all killed)
Settings: 10 µM unless noted
The panel holds about 83,000 compounds, 20% with a hit somewhere; the sample as a whole holds those more often.
Measured growth, listed per entry for reference.
ASSAY METRIC: growth (%)

- COMPOUND: "O=C([O][Hg][CH2]C1COCC([CH2][Hg][O]C(=O)c2ccccc2)O1)c1ccccc1 (centres undefined)"
  TARGET OR TEST SYSTEM: "HT29 colon"
  UNIT: "%"
  RECORDED NUMBER: 50.4
- COMPOUND: "COc1ccc(C(O)(C(=O)O)c2ccc(OC)cc2)cc1"
  TARGET OR TEST SYSTEM: "HT29 colon"
  UNIT: "%"
  RECORDED NUMBER: 81.4
- COMPOUND: "CN(C)C(=O)Oc1ccccc1-c1ccccc1"
  TARGET OR TEST SYSTEM: "HT29 colon"
  UNIT: "%"
  RECORDED NUMBER: 101
- COMPOUND: "COC(=O)[C@H](Cc1c[nH]c2ccccc12)NC(=O)[C@@H](OC)[C@@H]1Cc2cc3cc(OC4CC(OC5CC(O)C(O)C(C)O5)C(O)C(C)O4)c(C)c(O)c3c(O)c2C(=O)[C@H]1OC1CC(OC2CC(OC3CC(C)(O)C(O)C(C)O3)C(O)C(C)O2)C(O)C(C)O1 (some centres undefined)"
  TARGET OR TEST SYSTEM: "HT29 colon"
  UNIT: "%"
  RECORDED NUMBER: 4.98
- COMPOUND: "CC(=O)O[C@H](C[C@H](C(C)C)N(C)C(=O)[C@@H](NC(=O)[C@H]1CCCCN1C)C(C)(C)C)c1nc(C(=O)N[C@@H](Cc2ccccc2)C[C@H](C)C(=O)O)cs1"
  TARGET OR TEST SYSTEM: "HT29 colon"
  UNIT: "%"
  RECORDED NUMBER: 1.32
- COMPOUND: "C1CCC2(CC1)OOCNCOO2"
  TARGET OR TEST SYSTEM: "HT29 colon"
  UNIT: "%"
  RECORDED NUMBER: 97.7
- COMPOUND: "Oc1ccc2c3c1OC1[C@@H](O)CC[C@@]4(O)[C@@H](C2)N(CC2CCC2)CC[C@]314 (some centres undefined)"
  TARGET OR TEST SYSTEM: "HT29 colon"
  UNIT: "%"
  RECORDED NUMBER: 98
- COMPOUND: "CC(C)CCC(=O)O[C@H]1CC[C@H]2[C@@H]3CCC4=CC(=O)CC[C@]4(C)[C@H]3CC[C@]12C"
  TARGET OR TEST SYSTEM: "HT29 colon"
  UNIT: "%"
  RECORDED NUMBER: 106
- COMPOUND: "N#CC1(c2ccccc2)CCN(Cc2ccccc2)CC1"
  TARGET OR TEST SYSTEM: "HT29 colon"
  UNIT: "%"
  RECORDED NUMBER: 101
